PROTOCOL_NOTES: ATG_VDRE_CIS: Attagene CIS-FACTORIAL HepG2 Assay for human Vitamin D Receptor Element (VDRE) (AID 2282968)
EXPERIMENTAL_CONDITIONS: HepG2 VDRE cis-reporter transcription, actives raise or lower the signal
The source made the active and inactive calls. How the source made its calls: active means hit-call score of the fitted dose curve at least 0.9, where 1 is the maximum; inactive means score below 0.9.
Just give me one of these, please: YES = active, NO = inactive

{"columns": ["COMPOUND", "LABEL_VALUE"],
 "data": [
  ["CN(CCCC(=O)c1cccnc1)N=O", "NO"],
  ["Nc1cccc(Cl)c1", "NO"],
  ["O=C(Cc1ccccc1)c1ccccc1", "NO"],
  ["ClCc1cccnc1", "YES"],
  ["CC(C)(OO)c1ccccc1", "NO"],
  ["CC(=O)OC(c1ccccc1)C(Cl)(Cl)Cl (configuration not stated)", "NO"],
  ["C[C@]12CC[C@H](O)CC1=CC[C@@H]1[C@@H]2CC[C@]2(C)C(=O)CC[C@@H]12", "NO"],
  ["ClCC(Cl)CCl", "NO"]
]}

(Q) Which outcome was assigned to CC(C)CCCCCCOC(=O)c1ccccc1C(=O)OCCCCCCC(C)C in this test?
(A) NO

(Q) Which outcome was assigned to Fc1ccc(C2(Cn3cncn3)OC2c2ccccc2Cl)cc1 (configuration not stated) in this test?
(A) YES

(Q) Which outcome was assigned to CCCCP(CCCC)CCCC in this test?
(A) NO

(Q) Which outcome was assigned to N#CCCO in this test?
(A) NO

----------
ASSAY_TARGET: Retinoic acid receptor alpha (Homo sapiens) (UniProt P10276)
Sequence (P10276 whole entry, looked up): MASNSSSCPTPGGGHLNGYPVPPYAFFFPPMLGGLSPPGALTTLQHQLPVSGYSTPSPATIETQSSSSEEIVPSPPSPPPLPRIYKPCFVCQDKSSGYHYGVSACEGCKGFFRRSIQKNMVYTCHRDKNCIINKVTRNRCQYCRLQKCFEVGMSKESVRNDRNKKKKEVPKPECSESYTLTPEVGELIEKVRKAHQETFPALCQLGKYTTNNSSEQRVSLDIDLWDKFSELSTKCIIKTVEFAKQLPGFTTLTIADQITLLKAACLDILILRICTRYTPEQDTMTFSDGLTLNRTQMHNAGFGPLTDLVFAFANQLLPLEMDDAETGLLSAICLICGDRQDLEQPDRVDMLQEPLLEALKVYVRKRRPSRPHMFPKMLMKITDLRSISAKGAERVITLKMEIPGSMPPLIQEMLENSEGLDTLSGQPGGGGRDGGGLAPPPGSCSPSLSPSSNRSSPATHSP
PROTOCOL_NOTES: ATG_DR5_RAR_CIS: Attagene CIS-FACTORIAL HepG2 Assay for human Retinoic Acid Receptor Alpha (RARE), DR5 submotif (AID 2282934)
EXPERIMENTAL_CONDITIONS: HepG2 Attagene cis-factorial RARE DR5 reporter, mRNA; actives raise or lower the signal
Calls of active or inactive are those of the source. How the source made its calls: active means hit-call score of the fitted dose curve at least 0.9, where 1 is the maximum; inactive means score below 0.9.
Just give me one of these, please: yes (1) (active), no (0) (inactive)

Use these answered entries as a reference point.
{"columns": ["MOLECULE", "LABEL_VALUE"],
 "data": [
  ["CNC(=O)O/N=C/C(C)(C)S(C)=O (stereo not drawn)", "no (0)"],
  ["O=[N+]([O-])c1ccc(O)c([N+](=O)[O-])c1", "no (0)"],
  ["CC(C)C1CCC(Cc2ccc(Cl)cc2)C1(O)Cn1cncn1 (stereo not drawn)", "no (0)"],
  ["c1ccc(N=NNc2ccccc2)cc1", "no (0)"],
  ["C[C@]12CCC(=O)C[C@@H]1CC[C@@H]1[C@@H]2CC[C@]2(C)[C@@H](O)CC[C@@H]12", "no (0)"],
  ["CC(C)c1cccc(C(C)C)c1O", "no (0)"],
  ["Cl/C=C/Cl", "no (0)"],
  ["COC(=O)c1sccc1S(=O)(=O)NC(=O)Nc1nc(C)nc(OC)n1", "no (0)"],
  ["O=[N+]([O-])c1c(Cl)c(Cl)cc(Cl)c1Cl", "no (0)"],
  ["CCCCCCCCc1ccc(O)cc1", "no (0)"]
]}

(Q) Which outcome was assigned to CCOP(OCC)OCC in this test?
(A) no (0)

(Q) Which outcome was assigned to O=c1[nH]c(=O)[nH]c(=O)[nH]1 in this test?
(A) no (0)

(Q) Which outcome was assigned to COc1cc2c(cc1OC)[C@@]13CCN4CC5=CCO[C@H]6CC(=O)N2[C@H]1[C@H]6[C@H]5C[C@H]43 in this test?
(A) no (0)

(Q) Which outcome was assigned to CCOC(=O)/C=C(C)/C=C/C[C@@H](C)CCCC(C)C in this test?
(A) yes (1)

(Q) Which outcome was assigned to CC(Br)C(=O)O (stereo not drawn) in this test?
(A) no (0)

(Q) Which outcome was assigned to N#CCCO in this test?
(A) no (0)

(Q) Which outcome was assigned to O=[N+]([O-])c1ccc2c3c(cccc13)CC2 in this test?
(A) no (0)

(Q) Which outcome was assigned to COP(=O)(OC)O/C(=C\Cl)c1cc(Cl)c(Cl)cc1Cl in this test?
(A) no (0)

(Q) Which outcome was assigned to CCC(C)c1cccc(C(C)CC)c1O (stereo not drawn) in this test?
(A) no (0)
